Biological target: H3R membranes (H3R8-expressing HEK293 cell line) (Homo sapiens)
Construct: expressed in transfected cells; membranes
Sequence (Q9Y5N1 whole entry): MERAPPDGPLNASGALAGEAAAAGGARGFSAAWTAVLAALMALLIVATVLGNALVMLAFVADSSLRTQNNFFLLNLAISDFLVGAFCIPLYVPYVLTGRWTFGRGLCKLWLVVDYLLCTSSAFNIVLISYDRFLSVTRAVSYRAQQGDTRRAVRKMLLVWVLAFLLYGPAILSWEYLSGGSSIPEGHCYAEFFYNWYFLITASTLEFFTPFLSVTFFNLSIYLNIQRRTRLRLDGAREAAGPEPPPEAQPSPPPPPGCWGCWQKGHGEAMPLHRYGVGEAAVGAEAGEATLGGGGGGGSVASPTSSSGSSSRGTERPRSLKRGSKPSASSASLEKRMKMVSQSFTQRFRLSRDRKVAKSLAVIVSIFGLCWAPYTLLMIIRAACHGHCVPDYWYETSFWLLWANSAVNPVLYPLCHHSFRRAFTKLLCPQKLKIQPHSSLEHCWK
Test: [35S] GTPγ[S] binding assay, antagonist activity in the presence of agonist R(-)alpha methylhistamine
Format: biochemical
Conditions: inhibition of [35S]GTPγS binding to H3R membranes in presence of agonist
experimental.readout: pKi
Reminder that pKi means the negative base-10 logarithm of the concentration expressed in mol/L.

Value of measured pKi for the entry O=C(c1ccc(-c2ccccn2)cc1)N1CCC[C@H]1CN1CCCC1 : 7.31
